# Tested on: NCI/ADR-RES ovarian
# procedure_summary: NCI-60 one-dose screen, 48 h
# condition_parameters: 10 µM unless noted
About 83,000 compounds went through this panel and 20% of them were active in at least one assay; those are over-represented in the sample as a whole. The source made the active and inactive calls. The calls were made as follows: active = growth percent below 10; inactive = the rest.
A correct response names exactly one class from active, inactive

Worked examples, 5 compounds total:
{"compound": "CN(C)c1ccc(N2Cc3ccccc3OC3=C2C(=O)c2c(O)ccc(O)c2C3=O)cn1", "system": "NCI/ADR-RES ovarian", "discrete_label": "active"}
{"compound": "CCN(CC)Cc1cc(Nc2ccnc3cc(Cl)ccc23)cc(-c2ccc(Cl)cc2)c1O", "system": "NCI/ADR-RES ovarian", "discrete_label": "inactive"}
{"compound": "CN1CCN(c2ccc(N3Cc4ccccc4OC4=C3C(=O)c3c(O)ccc(O)c3C4=O)cn2)CC1", "system": "NCI/ADR-RES ovarian", "discrete_label": "active"}
{"compound": "Fc1[nH]nc2ccc([C@@H]3Nc4ccc5[nH]ncc5c4[C@H]4C5CCC(C5)[C@@H]34)cc12 (stereo not given in full)", "system": "NCI/ADR-RES ovarian", "discrete_label": "inactive"}
{"compound": "COc1cc(/C=C2\\C(=O)Nc3ccc(N(C)C)cc32)cc(OC)c1OC", "system": "NCI/ADR-RES ovarian", "discrete_label": "active"}

Continue with the next compound.
Assay outcome for `O=C(NCCNC(=O)c1cc(S(=O)(=O)NCCc2ccccc2)c(O)c(O)c1O)c1cc(S(=O)(=O)NCCc2ccccc2)c(O)c(O)c1O` : what was it?
inactive
